- Tested on: SF-268 CNS
- protocolDetails: NCI-60 one-dose screen, 48 h
- measurementParameters: 10 µM unless noted
The panel holds about 83,000 compounds, 20% with a hit somewhere; the sample as a whole holds those more often. Activity calls are given as the source filed them. The calls were made as follows: active = growth percent below 10; inactive = the rest.
Outcome codes: y (active), n (inactive)

{"molecule": "O=C(Nc1ccccc1O)c1ccc(NS(=O)(=O)c2cccc3cccnc23)cc1", "testSystem": "SF-268 CNS", "class": "n"}
{"molecule": "Cc1nn(-c2ccccc2)c2nc3nc4c(c(N)c3c(-c3ccc(Cl)cc3)c12)CCCC4", "testSystem": "SF-268 CNS", "class": "n"}
{"molecule": "CN1CCN(c2ccc3nc(-c4ccc5nc(-c6ccc(C(F)(F)F)cc6)[nH]c5c4)[nH]c3c2)CC1", "testSystem": "SF-268 CNS", "class": "n"}
{"molecule": "COc1ccc(OC)c(/C=C2\\Oc3cc(O)ccc3C2=O)c1", "testSystem": "SF-268 CNS", "class": "n"}
{"molecule": "CC1=C(C/C=C(\\C)CCC[C@H](C)CCC[C@H](C)CCCC(C)C)C(=O)c2ccccc2C1=O", "testSystem": "SF-268 CNS", "class": "n"}
{"molecule": "CCOC(=O)C1=C(C)N2C(=NC3=C(CCCC/C3=C\\c3cc(OC)c(OC)c(OC)c3)C2c2cc(OC)c(OC)c(OC)c2)S1 (stereo not drawn)", "testSystem": "SF-268 CNS", "class": "n"}
{"molecule": "Cc1nc(NC(=O)COc2cccc(/C=C3\\COc4ccccc4C3=O)c2)sc1C", "testSystem": "SF-268 CNS", "class": "y"}
{"molecule": "COc1cc(C2=NN(c3ccc(S(N)(=O)=O)cc3)C(c3ccc(Cl)cc3)C2)cc(OC)c1OC (stereo not drawn)", "testSystem": "SF-268 CNS", "class": "n"}
